Values were extracted from the supplement of paper PMC4862054.

For each entry below, report its normalised response value.
System: DU-4475
test.protocol: normalised response (% of control), CellTiter-Glo; higher = more viable cells (100 = DMSO, 0 = benzethonium chloride kill control)
details: incubation time: 72 h
Give bare numbers, in %.

Solved cases (5 shown):
QUERY: Record request: normalised response value, item Cc1ccc(NC(=O)c2ccc(CN3CCN(C)CC3)cc2)cc1Nc1nccc(-c2cccnc2)n1 [Imatinib] (1000 nM)
RESULT: 105

QUERY: Record: C[C@]12CC[C@H](O)CC1=CC[C@@H]1[C@@H]2CC[C@]2(C)C(c3cccnc3)=CC[C@@H]12 [Abiraterone] (0.5 nM)
RESULT: 94.5

QUERY: Would you mind doing Cc1ccc(NC(=O)c2ccc(CN3CCN(C)CC3)cc2)cc1Nc1nccc(-c2cccnc2)n1 [Imatinib] (1 nM) as well?
RESULT: 107

QUERY: Ok, now CN(C)CCN1C(=O)c2cccc3cc(N)cc(c23)C1=O [Amonafide] (1 nM)
RESULT: 101

QUERY: Continue with CC[C@]1(O)C[C@H]2CN(CCc3c([nH]c4ccccc34)[C@@](C(=O)OC)(c3cc4c(cc3OC)N(C=O)[C@H]3[C@@](O)(C(=O)OC)[C@H](OC(C)=O)[C@]5(CC)C=CCN6CC[C@]43[C@@H]65)C2)C1 [Vincristine] (1 nM)
RESULT: 106

Lab note: each compound below needs its normalised response filled in.
1. C/C(=C\c1csc(C)n1)[C@@H]1C[C@@H]2O[C@]2(C)CCC[C@H](C)[C@H](O)[C@@H](C)C(=O)C(C)(C)[C@@H](O)CC(=O)O1 [Patupilone] (100 nM)
2. CNNCc1ccc(C(=O)NC(C)C)cc1 [Procarbazine] (1000 nM)
3. CN(C)CCN1C(=O)c2cccc3cc(N)cc(c23)C1=O [Amonafide] (1000 nM)
4. Nc1ncnc2c1c(COc1cccc(Cl)c1)nn2C1CCOCC1 (1000 nM)
5. CN1CCN(CCOc2cc(OC3CCOCC3)c3c(Nc4c(Cl)ccc5c4OCO5)ncnc3c2)CC1 [Saracatinib] (10 nM)

RESULT:
1. 72.4
2. 94.8
3. 87.1
4. 102
5. 103

====

Tested on: MDA-MB-468
test.protocol: normalised viability (% of control), CellTiter-Blue; higher = more viable cells (about 100 = DMSO control)
details: 10000 nM; incubation time: 72 h
quantity: normalised viability (%)
Numbers only, in %.

Consider the following illustrative entries.
QUERY: What is its normalised viability for MDA-MB-468? Entry: CC(C)(C#N)c1cc(Cn2cncn2)cc(C(C)(C)C#N)c1
RESULT: 95.2

QUERY: And for CN(C)CCN1C(=O)c2cccc3cc(N)cc(c23)C1=O [Amonafide] ?
RESULT: 41.3

QUERY: Moving on to CN(C)C[C@@H]1CCn2cc(c3ccccc32)C2=C(C(=O)NC2=O)c2cn(c3ccccc23)CCO1
RESULT: 8.88

Now consider a different molecule.
QUERY: Hello, I am looking for reported normalised viability with MDA-MB-468 for CC[C@]1(O)C[C@H]2CN(CCc3c([nH]c4ccccc34)[C@@](C(=O)OC)(c3cc4c(cc3OC)N(C=O)[C@H]3[C@@](O)(C(=O)OC)[C@H](OC(C)=O)[C@]5(CC)C=CCN6CC[C@]43[C@@H]65)C2)C1 . Could you help?
RESULT: 38.4
